B1: DYRK1B (parent)
chain: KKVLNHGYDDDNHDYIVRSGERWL

- Variants of: B1
- Measurement notes: protein stability index of a GFP-peptide fusion (GPS, HEK-293T) (PSI 1-6); higher = more stable;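 note: lentivirally expressed fusions sorted by FACS into six bins by GFP to DsRed ratio, PSI derived from sequencing read proportions per bin multiplied by bin number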
- Reported conditions: c terminus: a fixed tail appended
Quantity name: protein stability index

> print(dat)
               sequence.text  endpoint.result
 1  KKVYNHGYDDDNHDYIVRSGERWL             2.99
 2  KKVLNHGYDDDNHDYIVRSGERWY             3.03
 3  KKVLNHGYDDDKHDYIVRSGERWL             3.05
 4  KKVLNHGDDDDNHDYIVRSGERWL             3.87
 5  KKVLLHGYDDDNHDYIVRSGERWL             3.01
 6  KKVLNHGYDDDNHDSIVRSGERWL             3.32
 7  KKVLNHGYDDVNHDYIVRSGERWL             2.54
 8  KKVLPHGYDDDNHDYIVRSGERWL             3.39
 9  KKVLNHGYDDDNHDLIVRSGERWL             3.05
10  KKVLNHGNDDDNHDYIVRSGERWL             4.15
11  KKPLNHGYDDDNHDYIVRSGERWL             2.94
12  EKVLNHGYDDDNHDYIVRSGERWL             3.24
13  KKVLNHGYDDDPHDYIVRSGERWL             2.78
14  KKVLNHGYDDDNHDYIMRSGERWL             2.98
15  KKVLNHGYDDDNYDYIVRSGERWL             2.64
16  KKVLNHGYDDDNHDYIVRHGERWL             3.91
17  KKVLNHGYDDDNHDYIVLSGERWL             2.39
18  KKVLNHGYDDDNHDYIIRSGERWL             2.55
19  KKVLNHGYDDDNHDYPVRSGERWL             3.55
20  PKVLNHGYDDDNHDYIVRSGERWL             3.43
21  KKVLNHGYKDDNHDYIVRSGERWL             2.87
22  KKVLNHGYDDDGHDYIVRSGERWL             2.81
23  KKVLNHGYDDDNHDYIVRSGEKWL             3.29
24  KKVLNHGYDDDNHDYIVRSGPRWL             2.61
25  KKVLNHGYDDNNHDYIVRSGERWL             2.89
26  KKVLNHGYDDDNHDYIVRSGERWA             3.37
27  KKHLNHGYDDDNHDYIVRSGERWL             3.12
28  KKVLAHGYDDDNHDYIVRSGERWL             2.88
29  KKVLNHGYDDDIHDYIVRSGERWL             2.47
30  KKVLNHGYDDDNHDYIVKSGERWL             3.74
